Method Notes: Inhibition of bacterial Beta-lactamase OXA-48 (1 - 265) (unknown origin) expressed in Escherichia coli Transetta (DE3)
Design: species or system Bacteria
pIC50: −log10 of the molar value.
// reported pIC50 for each item listed

Molecule	Inequality Operator	pIC50
OB1OC(c2ccc(N3CCCCC3)cc2)c2ccccc21 (stereo not given)	=	5.46
OB1OC(c2cccs2)c2ccccc21 (stereo not given)	=	5.26
OB1OC(c2c[nH]c3ccc(OCc4ccccc4)cc23)c2ccccc21 (stereo not given)	<	4.00
NC(=O)[C@@H]1CC[C@@H]2CN1C(=O)N2OS(=O)(=O)O [AVIBACTAM]	=	6.77
OB1OC(c2c[nH]c3ccc(Br)cc23)c2ccc(F)cc21 (stereo not given)	<	4.00
CN(C)c1ccc(C2OB(O)c3cc(Cl)ccc32)cc1 (stereo not given)	=	5.71
OB1OC(c2c[nH]c3ccc(F)cc23)c2ccccc21 (stereo not given)	<	4.00
OB1OC(c2ccccc2)c2ccccc21 (stereo not given)	=	5.06
Cc1ccc2[nH]cc(C3OB(O)c4ccccc43)c2c1 (stereo not given)	<	4.00
CNc1ccc(C2OB(O)c3cccc(F)c32)cc1 (stereo not given)	=	5.19

---

// reported pIC50 for each item listed
Method Notes: Inhibition of bacterial Beta-lactamase KPC-2 (29 - 289) (unknown origin) expressed in Escherichia coli Transetta (DE3)
Design: species or system Bacteria
pIC50: −log10 of the molar value.
Test Readout: pIC50

Molecule	Test Readout	Observed
COc1ccc2c(c1)C(c1ccc(N(C)C)cc1)OB2O (stereo unspecified)	pIC50	6.74
CN(C)c1ccc(C2OB(O)c3cc(Cl)ccc32)cc1 (stereo unspecified)	pIC50	6.09
CNc1ccc(C2OB(O)c3cccc(F)c32)cc1 (stereo unspecified)	pIC50	5.62
CN(C)c1ccc(C2OB(O)c3ccc(Cl)cc32)cc1 (stereo unspecified)	pIC50	7.07
CN(C)c1ccc(C2OB(O)c3ccccc32)cc1 (stereo unspecified)	pIC50	6.74
OB1OC(c2cccs2)c2ccccc21 (stereo unspecified)	pIC50	6.39
OB1OC(c2c[nH]c3ccc(Br)cc23)c2ccccc21 (stereo unspecified)	pIC50	5.03
OB1OC(c2c[nH]c3ccc(F)cc23)c2ccccc21 (stereo unspecified)	pIC50	6.44
OB1OC(c2ccccc2)c2ccccc21 (stereo unspecified)	pIC50	6.00
CNc1ccc(C2OB(O)c3ccccc32)cc1 (stereo unspecified)	pIC50	7.00
OB1OC(c2c[nH]c3ccccc23)c2ccccc21 (stereo unspecified)	pIC50	5.59

---

// reported pIC50 for each item listed
Method Notes: Inhibition of bacterial Beta-lactamase KPC-2 (29 - 289) (unknown origin) expressed in Escherichia coli Transetta (DE3)
Design: species or system Bacteria
pIC50: −log10 of the molar value.

Molecule	Inequality Operator	pIC50
NC(=O)[C@@H]1CC[C@@H]2CN1C(=O)N2OS(=O)(=O)O [AVIBACTAM]	=	8.43
OB1OC(c2ccc(N3CCCCC3)cc2)c2ccccc21 (stereo unspecified)	=	6.29
OB1OC(c2cn(Cc3ccccc3)c3ccccc23)c2ccccc21 (stereo unspecified)	<	4.00
CN(C)c1ccc(C2OB(O)c3cccc(F)c32)cc1 (stereo unspecified)	=	5.72
OB1OC(c2c[nH]c3ccccc23)c2c(F)cccc21 (stereo unspecified)	=	5.18
OB1OC(c2c[nH]c3ccc(Cl)cc23)c2ccccc21 (stereo unspecified)	=	6.70
CN(C)c1ccc(C2OB(O)c3ccc(F)cc32)cc1 (stereo unspecified)	=	6.46
CN(C)c1ccc(C2OB(O)c3cc4c(cc32)OCO4)cc1 (stereo unspecified)	=	6.12
OB1OC(c2c[nH]c3ccc(OCc4ccccc4)cc23)c2ccccc21 (stereo unspecified)	<	4.00
Cc1ccc2[nH]cc(C3OB(O)c4ccccc43)c2c1 (stereo unspecified)	=	6.66
OB1OC(c2c[nH]c3ccc(Br)cc23)c2ccc(F)cc21 (stereo unspecified)	<	4.00
